molecular target: wildtype STAT1 protein (Homo sapiens); assay: Fluorescence polarization competitive binding, STAT1; details: FP; read-out: IC50, disruption of phosphopeptide-STAT1 complex
Sequence (P42224 whole entry, species assumed): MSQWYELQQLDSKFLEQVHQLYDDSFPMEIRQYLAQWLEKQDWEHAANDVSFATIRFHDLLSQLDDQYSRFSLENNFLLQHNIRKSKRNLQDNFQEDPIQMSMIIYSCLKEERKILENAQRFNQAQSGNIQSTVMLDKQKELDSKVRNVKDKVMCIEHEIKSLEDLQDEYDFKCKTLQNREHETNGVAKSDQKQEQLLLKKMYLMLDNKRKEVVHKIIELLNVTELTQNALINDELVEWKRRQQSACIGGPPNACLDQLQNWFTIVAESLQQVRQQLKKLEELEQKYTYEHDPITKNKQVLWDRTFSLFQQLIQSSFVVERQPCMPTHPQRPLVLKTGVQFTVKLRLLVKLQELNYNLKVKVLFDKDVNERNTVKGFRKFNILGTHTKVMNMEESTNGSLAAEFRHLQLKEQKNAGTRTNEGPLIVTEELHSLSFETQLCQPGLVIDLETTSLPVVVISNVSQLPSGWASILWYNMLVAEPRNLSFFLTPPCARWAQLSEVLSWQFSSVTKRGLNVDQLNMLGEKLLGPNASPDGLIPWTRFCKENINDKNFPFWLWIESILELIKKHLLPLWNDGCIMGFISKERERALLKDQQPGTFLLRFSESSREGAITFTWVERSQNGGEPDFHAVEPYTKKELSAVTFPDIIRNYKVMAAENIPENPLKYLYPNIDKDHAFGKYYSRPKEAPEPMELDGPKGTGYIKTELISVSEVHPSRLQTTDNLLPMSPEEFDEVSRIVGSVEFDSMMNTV
RESULT_TYPE: IC50

* CC(C)(C)c1cc(CN(C(=O)CN(Cc2ccc(Cl)cc2)S(=O)(=O)c2c(F)c(F)c(F)c(F)c2F)c2ccc(C(=O)O)c(O)c2)cc(C(C)(C)C)c1 [Compound 13a] | > 150 µM

----------
Molecular target: STAT5
Construct: rows headed: KD (koff/kon) STAT5
Details: SPR, 25° C., Langmuir 1:1 binding model; read-out: KD (koff/kon) STAT5
Protocol: Interactions of His-tagged STAT3 and STAT5 with small molecules were investigated using SPR spectroscopy. The binding experiments were carried on a ProteOn XPR36 (Bio-Rad) biosensor at 25° C. using the HTE sensor chip (Bio-Rad, Ontario, Canada). The flow cells of the sensor chip were loaded with a nickel solution at 30 μL/min for 120 s to saturate the Tris-NTA surface with Ni(II) ions. […] Data were analysed using ProteOn Manager Software version 3.1.
pKd: −log10 of the molar value.
RESULT_TYPE: pKd

- CC(C)(C)c1cc(CN(C(=O)CN(Cc2ccc(Cl)cc2)S(=O)(=O)c2c(F)c(F)c(F)c(F)c2F)c2ccc(C(=O)O)c(O)c2)cc(C(C)(C)C)c1 [Compound 13a]: 7.38

----------
Target: wildtype STAT5B protein (SH2 domain) (Homo sapiens)
Assay: Fluorescence polarization competitive binding, STAT5b
Conditions: FP; 5-FAM-GpYLVLDKW 10 nM, STAT5B 250 nM
Procedure: Fluorescence assays were performed in flat black 384-well plates (Corning) and fluorescence polarization measurements were taken with the Infinite M1000 machine (Tecan, Crailsheim, Germany). […] Compounds were titrated at concentrations ranging from 1->60,000 nM and incubated for a further 15 minutes at which point fluorescence polarization measurements were taken in triplicate. […]
pIC50: −log10 of the molar value.
RESULT_TYPE: pIC50

- O=C(O)c1ccc(N(Cc2ccc3ccccc3c2)C(=O)CN(Cc2ccc(Cl)cc2)S(=O)(=O)c2c(F)c(F)c(F)c(F)c2F)cc1O [Compound 13d]: 5.40
- Cc1cc(C)c(S(=O)(=O)N(CC(=O)N(Cc2ccc3ccccc3c2)c2ccc(C(=O)O)c(O)c2)Cc2ccc(Cl)cc2)c(C)c1 [Compound 13c]: 5.09
- Cc1cc(C)c(S(=O)(=O)N(CC(=O)N(Cc2cc(C(C)(C)C)cc(C(C)(C)C)c2)c2ccc(C(=O)O)c(O)c2)Cc2ccc(Cl)cc2)c(C)c1 [Compound 13b]: 5.19
- CC(C)(C)c1cc(CN(C(=O)CN(Cc2ccc(Cl)cc2)S(=O)(=O)c2c(F)c(F)c(F)c(F)c2F)c2ccc(C(=O)O)c(O)c2)cc(C(C)(C)C)c1 [Compound 13a]: 6.43

----------
biological target: STAT3 (Homo sapiens, UniProt P40763)
Sequence (P40763 whole entry): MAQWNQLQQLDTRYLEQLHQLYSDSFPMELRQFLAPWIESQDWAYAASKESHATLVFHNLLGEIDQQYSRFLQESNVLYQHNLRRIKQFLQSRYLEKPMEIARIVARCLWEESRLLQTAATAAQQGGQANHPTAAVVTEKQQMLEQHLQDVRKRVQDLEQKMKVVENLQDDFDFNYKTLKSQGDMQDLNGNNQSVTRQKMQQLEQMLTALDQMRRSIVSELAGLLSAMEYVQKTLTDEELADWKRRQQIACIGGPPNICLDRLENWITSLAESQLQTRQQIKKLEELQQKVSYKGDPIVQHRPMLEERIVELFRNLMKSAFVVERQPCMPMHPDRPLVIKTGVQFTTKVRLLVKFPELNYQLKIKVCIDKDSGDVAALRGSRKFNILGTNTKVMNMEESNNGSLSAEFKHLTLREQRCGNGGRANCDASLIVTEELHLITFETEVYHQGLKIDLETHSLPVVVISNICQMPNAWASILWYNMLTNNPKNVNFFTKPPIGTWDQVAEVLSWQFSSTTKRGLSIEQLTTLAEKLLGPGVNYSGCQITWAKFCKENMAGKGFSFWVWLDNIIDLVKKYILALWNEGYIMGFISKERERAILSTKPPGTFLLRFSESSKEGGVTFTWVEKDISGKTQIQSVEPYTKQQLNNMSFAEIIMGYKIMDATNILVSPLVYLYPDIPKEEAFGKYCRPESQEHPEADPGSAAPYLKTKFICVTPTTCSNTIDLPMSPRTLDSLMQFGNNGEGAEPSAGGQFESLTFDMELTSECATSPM
pKd: −log10 of the molar value.
RESULT_TYPE: pKd

* CC(C)(C)c1cc(CN(C(=O)CN(Cc2ccc(Cl)cc2)S(=O)(=O)c2c(F)c(F)c(F)c(F)c2F)c2ccc(C(=O)O)c(O)c2)cc(C(C)(C)C)c1 [Compound 13a] | 6.54

----------
Target: wildtype STAT5B protein (SH2 domain) (Homo sapiens)
Sequence (P51692 1-787): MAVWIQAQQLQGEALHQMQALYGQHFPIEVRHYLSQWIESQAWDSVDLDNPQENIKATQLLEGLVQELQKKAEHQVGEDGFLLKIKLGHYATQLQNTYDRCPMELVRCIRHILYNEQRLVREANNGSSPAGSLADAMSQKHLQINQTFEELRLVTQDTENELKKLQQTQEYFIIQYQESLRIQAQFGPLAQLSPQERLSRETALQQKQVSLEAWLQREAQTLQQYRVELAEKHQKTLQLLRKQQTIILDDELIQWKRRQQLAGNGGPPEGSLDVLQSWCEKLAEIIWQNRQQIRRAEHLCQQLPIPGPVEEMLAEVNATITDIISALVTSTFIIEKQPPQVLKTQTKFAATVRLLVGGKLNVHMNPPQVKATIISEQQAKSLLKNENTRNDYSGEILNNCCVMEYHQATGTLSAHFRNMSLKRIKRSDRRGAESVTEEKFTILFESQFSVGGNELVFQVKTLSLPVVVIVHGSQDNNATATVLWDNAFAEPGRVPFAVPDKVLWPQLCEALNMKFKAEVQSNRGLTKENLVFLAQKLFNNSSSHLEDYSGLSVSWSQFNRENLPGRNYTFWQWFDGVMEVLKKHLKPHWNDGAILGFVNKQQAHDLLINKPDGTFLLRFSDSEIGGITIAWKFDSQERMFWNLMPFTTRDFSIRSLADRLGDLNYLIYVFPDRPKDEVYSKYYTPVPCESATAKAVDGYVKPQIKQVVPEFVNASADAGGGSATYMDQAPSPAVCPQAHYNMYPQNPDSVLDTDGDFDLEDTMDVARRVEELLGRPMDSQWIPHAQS
pKi: −log10 of the molar value.
// reported pKi per item
RESULT_TYPE: pKi

• CC(C)(C)c1cc(CN(C(=O)CN(Cc2ccc(Cl)cc2)S(=O)(=O)c2c(F)c(F)c(F)c(F)c2F)c2ccc(C(=O)O)c(O)c2)cc(C(C)(C)C)c1 [Compound 13a] = 6.82
• Cc1cc(C)c(S(=O)(=O)N(CC(=O)N(Cc2ccc3ccccc3c2)c2ccc(C(=O)O)c(O)c2)Cc2ccc(Cl)cc2)c(C)c1 [Compound 13c] = 5.49
• Cc1cc(C)c(S(=O)(=O)N(CC(=O)N(Cc2cc(C(C)(C)C)cc(C(C)(C)C)c2)c2ccc(C(=O)O)c(O)c2)Cc2ccc(Cl)cc2)c(C)c1 [Compound 13b] = 5.59
• O=C(O)c1ccc(N(Cc2ccc3ccccc3c2)C(=O)CN(Cc2ccc(Cl)cc2)S(=O)(=O)c2c(F)c(F)c(F)c(F)c2F)cc1O [Compound 13d] = 5.81
